Data credit: patent US7402417B2

Target: recombinant taxoid 5α-hydroxylase (clone S1) (Taxus cuspidata, UniProt Q6WG30)
Construct: the S1 ORF was amplified using Pfu DNA polymerase and gene-specific primers containing a BamHI site immediately upstream of the start codon; made in house; host or cells: Spodoptera frugiperda Sf9 cells (baculovirus, pFastBac1); microsomal membranes
Sequence (Q6WG30 with tags, fused parts or gaps): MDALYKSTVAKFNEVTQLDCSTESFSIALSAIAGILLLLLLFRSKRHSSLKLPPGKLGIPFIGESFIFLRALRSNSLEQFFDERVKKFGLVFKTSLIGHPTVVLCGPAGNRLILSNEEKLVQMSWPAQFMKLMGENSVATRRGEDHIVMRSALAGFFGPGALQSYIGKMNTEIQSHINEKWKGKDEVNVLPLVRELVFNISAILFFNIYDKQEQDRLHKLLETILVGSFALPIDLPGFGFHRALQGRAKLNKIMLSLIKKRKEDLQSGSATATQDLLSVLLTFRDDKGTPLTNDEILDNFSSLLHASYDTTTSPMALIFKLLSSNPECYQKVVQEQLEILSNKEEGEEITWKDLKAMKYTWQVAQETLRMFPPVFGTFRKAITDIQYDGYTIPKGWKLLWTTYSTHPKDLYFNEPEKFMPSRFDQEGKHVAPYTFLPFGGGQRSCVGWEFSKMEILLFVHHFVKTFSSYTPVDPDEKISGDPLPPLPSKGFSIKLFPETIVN
Experiment: Substrate binding spectra with Sf9 microsomes enriched in recombinant 5α-hydroxylase
Conditions: FIG. 3; microsomes with 200 pmol recombinant enzyme; no NADPH; read-out: binding constant (Ks)
pKd: −log10 of the molar value.
MEASURED METRIC: pKd

[[record]]
compound = "CC1=CCC[C@@]2(C)CCC3=C(C)CC[C@@H](C[C@H]12)C3(C)C [taxa-4(5),11(12)-diene]"
numeric_result = 5.19

[[record]]
compound = "C=C1CCC[C@@]2(C)CCC3=C(C)CC[C@@H](C[C@H]12)C3(C)C [taxa-4(20),11(12)-diene]"
numeric_result = 5.40


###

Reported Kd by item:
Target: recombinant taxoid 5α-hydroxylase (clone S1) (Taxus cuspidata, UniProt Q6WG30)
Construct: the S1 ORF was amplified using Pfu DNA polymerase and gene-specific primers containing a BamHI site immediately upstream of the start codon; made in house; host or cells: Spodoptera frugiperda Sf9 cells (baculovirus, pFastBac1); microsomal membranes
Experiment: Substrate binding spectra with Sf9 microsomes enriched in recombinant 5α-hydroxylase
Conditions: over a 100-fold range of substrate concentrations; pH 7.5; no NADPH; read-out: substrate binding constant (Ks), variation
MEASURED METRIC: Kd

[[record]]
compound_structure_string = "CC1=CCC[C@@]2(C)CCC3=C(C)CC[C@@H](C[C@H]12)C3(C)C"
assay_target = "recombinant taxoid 5α-hydroxylase (clone S1) (Taxus cuspidata, UniProt Q6WG30)"
result = "5 to 8 µM"

[[record]]
compound_structure_string = "C=C1CCC[C@@]2(C)CCC3=C(C)CC[C@@H](C[C@H]12)C3(C)C"
assay_target = "recombinant taxoid 5α-hydroxylase (clone S1) (Taxus cuspidata, UniProt Q6WG30)"
result = "3 to 5 µM"

